Sequence of the target: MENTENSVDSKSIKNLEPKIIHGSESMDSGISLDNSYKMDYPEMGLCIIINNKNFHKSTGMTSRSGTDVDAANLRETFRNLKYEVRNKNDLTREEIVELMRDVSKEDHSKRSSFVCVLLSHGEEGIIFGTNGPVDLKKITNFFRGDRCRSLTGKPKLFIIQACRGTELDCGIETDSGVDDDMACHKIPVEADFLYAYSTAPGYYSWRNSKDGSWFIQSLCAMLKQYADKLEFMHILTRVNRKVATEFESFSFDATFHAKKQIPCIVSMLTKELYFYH
Values of IC50 for the protein given by its sequence, collected from a number of published sources:

Recorded results for 3 compounds are shown here.
COMPOUND: COc1cccc(OC)c1C(=O)NNC(=O)C1(C(=O)N[C@H]2CC(=O)OC2O)CCCCC1 (stereo partly drawn)
TESTED_ON: the protein given by its sequence
MEASURED_RESULT: > 10 µM
--
COMPOUND: O=C1C(=O)N(Cc2ccc(OCCOCCOCCF)cc2)c2ccc(S(=O)(=O)N3CC[C@H]3COc3ccccc3)cc21
TESTED_ON: the protein given by its sequence
MEASURED_RESULT: 0.0269 µM
--
COMPOUND: O=C1C(=O)N(Cc2ccc(OCCOCCF)cc2)c2ccc(S(=O)(=O)N3CCC[C@H]3COc3ccccc3)cc21
TESTED_ON: the protein given by its sequence
MEASURED_RESULT: 0.0109 µM

I'd like to know its IC50. The compound in question is O=C(CN1CC(CNS(=O)(=O)c2ccccc2)=CC[C@H](NC(=O)c2ccc3ccccc3c2)C1=O)N[C@H]1CC(=O)OC1O (stereo partly drawn)
6.81 µM

Given the entry O=C1C[C@H](NC(=O)C2(C(=O)NNC(=O)c3cccc4ccccc34)Cc3ccccc3C2)C(O)O1 (stereo partly drawn) , report its measured IC50.
> 10 µM

// lookup IC50 for O=C(CN1CC(CSCc2ccccc2)=CC[C@H](NC(=O)c2ccc3ccccc3c2)C1=O)N[C@H]1CC(=O)OC1O (stereo partly drawn)
> 10 µM

What measured IC50 goes with O=C(CN1CC[C@H](NC(=O)OCc2ccccc2)C1=O)N[C@H]1CC(=O)OC1O (stereo partly drawn) ?
> 10 µM

Any idea what its IC50 is? The compound is O=C1C[C@H](NC(=O)C2(C(=O)NNC(=O)c3ccc4ccccc4c3)CC2)C(O)O1 (stereo partly drawn)
> 10 µM
